Consider the following substances; for each one, report its Rb, relative intensity ratio.
Tested on: Rb
test: siRNA transfection array, Rb EGFP reporter, HepG2 cells
Type: cell-based, human
settings: EGFP intensity relative to Scramble II Duplex negative control (100%)
Give bare numbers, in %.

Recorded Rb, relative intensity ratio, per entry:
{"columns": ["substance", "units", "Rb, relative intensity ratio"],
 "data": [
  ["RARB1 siRNA: siRNA SEQ ID NO: 66 (Dharmacon), targets human RARB transcript variant 1 NM_000965 (GUGAACUGGCCACCAAGUG; chemistry not given here)", "%", 273.6],
  ["RARA siRNA: siRNA SEQ ID NO: 65 (Dharmacon), targets human retinoic acid receptor alpha NM_000964 (GUACUGCCGACUGCAGAAG; chemistry not given here)", "%", 246.0],
  ["CREB siRNA: siRNA SEQ ID NO: 55 (Dharmacon), targets human CREB M27691 (CAGGAGUCAGUGGAUAGUG; chemistry not given here)", "%", 686.6],
  ["IkBa siRNA: siRNA SEQ ID NO: 62 (Dharmacon), targets human MAD-3 (IkB-like) M69043 (GCAGACUCCACUCCACUUG; chemistry not given here)", "%", 139.7],
  ["NFkB siRNA: siRNA SEQ ID NO: 64 (Dharmacon), targets human p50-NF-kappa B homolog S76638 (GCCUAAGCAGAGAGGCUUC; chemistry not given here)", "%", 138.8],
  ["HSF-1 siRNA: siRNA SEQ ID NO: 59 (Dharmacon), targets human HSF1 NM_005526 (GGAGUGCAUGGACUCCAAG; chemistry not given here)", "%", 376.9],
  ["RARG siRNA: siRNA SEQ ID NO: 68 (Dharmacon), targets human retinoic acid receptor gamma M57707 (GCCCUACAUGUUCCCAAGG; chemistry not given here)", "%", 258.3],
  ["c-Fos siRNA: siRNA SEQ ID NO: 53 (Dharmacon), targets human c-fos K00650 (GCGGAGACAGACCAACUAG; chemistry not given here)", "%", 525.5],
  ["HSF-2 siRNA: siRNA SEQ ID NO: 60 (Dharmacon), targets human HSF2 M65217 (GUUCCACACAGUAGGACUG; chemistry not given here)", "%", 320.1]
]}

Consider now this further substance.
Incoming: Rb, relative intensity ratio of ER siRNA: siRNA SEQ ID NO: 57 (Dharmacon), targets human estrogen receptor M12674 (CCUUCUAGAAUGUGCCUGG; chemistry not given here) on Rb?
Outgoing: 87.7
